pKi: −log10 of the molar value.
For Tyrosine-protein kinase ABL1 (Homo sapiens, UniProt P00519), measured pKi is reported for the entries below.

| smilesInput | pKi |
| --- | --- |
| O=C(Nc1nnc(COc2ccccc2)s1)c1cccs1 | 6.56 |
| O=C(Nc1ncc(Cc2cc(Cl)ccc2Cl)s1)c1cccs1 | 7.30 |
| COc1ccc(Cc2cnc(NC(=O)c3cccs3)s2)cc1 | 7.80 |
| O=C(Nc1ncc(Cc2ccc(F)cc2)s1)c1cccs1 | 6.89 |
| Cc1ccc(Cc2cnc(NC(=O)c3cccs3)s2)cc1 | 6.60 |
| O=C(Nc1ncc(Cc2ccccc2Cl)s1)c1cccs1 | 6.61 |
| O=C(Nc1ncc(Cc2ccccc2)s1)c1cccs1 | 7.05 |
| O=C(Nc1ncc(Cc2ccc(Cl)cc2Cl)s1)c1cccs1 | 5.46 |
| O=C(Nc1ncc(Cc2cccc(Cl)c2)s1)c1cccs1 | 7.01 |
| O=C(Nc1ncc(-c2ccc(Cl)cc2)s1)c1cccs1 | 6.10 |
| COc1ccc2c(c1)Cc1sc(NC(=O)c3cccs3)nc1-2 | 7.17 |
| O=C(Nc1nnc(Cc2ccccc2)s1)c1cccs1 | 6.44 |

Origin of measurements: ChEMBL document CHEMBL1155853
